# Test system: kochia (Kochia scoparia)
# PROCEDURE DETAILS: Test A preemergence, kochia
# Assay type: in vivo
# EXPERIMENTAL CONTEXT: 500 g ai/ha, 0 to 100 scale
Recorded Plant response rating, Kochia for the following compounds
Reply: number alone, nothing else.

Completed entries (count: 5):
                                   compound                   readout_type  numeric_value
0  O=C1NCC(C#Cc2ccc(F)cc2)C1C(=O)Nc1cccc(F)c1F (stereo not drawn)  Plant response rating, Kochia              0
1  O=C1NCC(CCc2ccccc2)C1C(=O)Nc1cccc(F)c1F (stereo not drawn)  Plant response rating, Kochia             50
2  Cc1cccc(C#CC2CNC(=O)C2C(=O)Nc2ccccc2F)c1 (stereo not drawn)  Plant response rating, Kochia              0
3  O=C1NCC(Cc2ccc(C(F)(F)F)cc2)C1C(=O)Nc1cccc(F)c1F (stereo not drawn)  Plant response rating, Kochia              0
4  O=C1NCC(/C=C/c2ccc(F)cc2)C1C(=O)Nc1cccc(F)c1F (stereo not drawn)  Plant response rating, Kochia             20

Summary for this compound, O=C1NCC(/C=C/c2ccccc2)C1C(=O)Nc1cccc(F)c1F (stereo not drawn) : Plant response rating, Kochia is 20
